- system tested: T1, BCMA expressed on multiple myeloma cell lines H929 and MM1S (UniProt Q02223 1-184, limits assumed)
- T1 construct: whole, on cells; Endogenous BCMA on tumour cell lines; also called BMCA; cell surface BCMA
- T1 sequence (looked up): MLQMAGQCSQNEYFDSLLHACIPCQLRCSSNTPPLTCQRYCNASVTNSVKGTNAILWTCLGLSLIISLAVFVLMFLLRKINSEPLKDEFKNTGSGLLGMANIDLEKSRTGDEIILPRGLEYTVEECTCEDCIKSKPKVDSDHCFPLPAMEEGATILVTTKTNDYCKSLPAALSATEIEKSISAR
- procedure details: flow cytometry, MM1S cells, purified VH domain (text: 1 uM); control iso_anti-His-PE Mean 4.19 [B), MM1S table]
A collection of binders and their measured Mean FL2-H
# output: bare number, no unit

## Task Give the measured Mean FL2-H of Clone MN5 (VH domain) (VHH, Single-domain antibody: a VH domain from a synthetic phage library, not camelid; Expressed in E. coli) VHH: EVQLVESGGGLVQPGGSLRLSCAASGFTFSSYAMGWVRQAPGKGPEVVSLISGSGGSTWYDDSVKGRFTISRDNSKNTLYLQMNSLRAEDTAVYYCASREDNMTTWGQGTLVTVSS .
## Result 13.9

## Task Item Clone MN8 (VH domain) (VHH, Single-domain antibody: a VH domain from a synthetic phage library, not camelid; Expressed in E. coli) VHH: EVQLVESGGGLVQPGGSLRLSCAASGFTFSSYAMGWVRQAPGKGPEVVSLISGSGGSTWYDDSVKGRFTISRDNSKNTLYLQMNSLRAEDTAVYYCASPEDAPSYSRWGQGTLVTVSS has what recorded Mean FL2-H?
## Result 4.93

## Task Which Mean FL2-H value is on record for Clone MN7 (VH domain) (VHH, Single-domain antibody: a VH domain from a synthetic phage library, not camelid; Expressed in E. coli) VHH: EVQLVESGGGLVQPGGSLRLSCAASGFTFSSYAMGWVRQAPGKGPEVVSLISGSGGSTWYDDSVKGRFTISRDNSKNTLYLQMNSLRAEDTAVYYCASPEDMYQTWGQGTLVTVSS ?
## Result 5.38

## Task Given the entry Clone MN1 (VH domain) (VHH, Single-domain antibody: a VH domain from a synthetic phage library, not camelid; Expressed in E. coli) VHH: EVQLVESGGGLVQPGGSLRLSCAASGFTFTAYDMGWVRQAPGKGPEWVSLISSDSGDTWYDDSVKGRFTISRDNSKNTLYLQMNSLRAEDTAVYYCARLGAYSTTYDYWGQGTLVTVSS , report its measured Mean FL2-H.
## Result 24
